Biological target: Sodium/potassium-transporting ATPase
Assay: Inhibition of Sodium/potassium-transporting ATPase
test-readout: IC50

Here are 3 molecules together with their reported answers.
[
  {
    "molecule": "CC(C)=CC(=O)C[C@@H](C)[C@H]1CCC2=C3CC[C@H]4C(C)(C)[C@@H](O)CC[C@]4(C)[C@H]3CC[C@@]21C",
    "measured-on": "Sodium/potassium-transporting ATPase",
    "IC50": "> 234 µM"
  },
  {
    "molecule": "CC(=O)N[C@H]1[C@H](O[C@@H]2CO[C@@H](O[C@H]3CC[C@@]4(C)[C@@H](CC[C@@]5(O)[C@]4(O)CC=C4[C@@H]([C@H](C)CC(=O)C=C(C)C)CC[C@@]45C)C3(C)C)[C@H](O[C@@H]3O[C@H](CO[C@@H]4O[C@H](CO)[C@@H](O)[C@H](O)[C@H]4O[C@@H]4O[C@H](CO)[C@@H](O)[C@H](O)[C@H]4O)[C@@H](O)[C@H](O)[C@H]3NC(C)=O)[C@H]2O)O[C@H](CO)[C@H](O)[C@@H]1O [SARASINOSIDE R]",
    "measured-on": "Sodium/potassium-transporting ATPase",
    "IC50": "> 75.7 µM"
  },
  {
    "molecule": "CC(=O)N[C@H]1[C@H](O[C@@H]2CO[C@@H](O[C@H]3CC[C@@]4(C)[C@@H](CCC5=C6CC[C@H]([C@H](C)CC(=O)C=C(C)C)[C@@]6(C)CC[C@@]4(O)O5)C3(C)C)[C@H](O[C@@H]3O[C@H](CO[C@@H]4O[C@H](CO)[C@@H](O)[C@H](O)[C@H]4O[C@@H]4O[C@H](CO)[C@@H](O)[C@H](O)[C@H]4O)[C@@H](O)[C@H](O)[C@H]3NC(C)=O)[C@H]2O)O[C@H](CO)[C@H](O)[C@@H]1O [SARASINOSIDE Q]",
    "measured-on": "Sodium/potassium-transporting ATPase",
    "IC50": "> 75.7 µM"
  }
]

As a next step, examine the molecule that follows.
State its IC50 on Sodium/potassium-transporting ATPase: CC(=O)N[C@H]1[C@H](O[C@@H]2CO[C@@H](O[C@H]3CC[C@]4(C)C5=CC[C@]6(C)[C@@H]([C@H](C)CC(=O)C=C(C)C)CC[C@H]6[C@]5(O)CC[C@]4(O)C3(C)C)[C@H](O[C@@H]3O[C@H](CO[C@@H]4O[C@H](CO)[C@@H](O)[C@H](O)[C@H]4O[C@@H]4O[C@H](CO)[C@@H](O)[C@H](O)[C@H]4O)[C@@H](O)[C@H](O)[C@H]3NC(C)=O)[C@H]2O)O[C@H](CO)[C@H](O)[C@@H]1O [SARASINOSIDE P]
> 75.7 µM
